System: ISR pathway (H4 ATF4-NLuc cell line)
Test Description: ATF4 Nano Luciferase reporter integrated stress response (ISR) assay
Assay type: cell-based
Measurement Parameters: Homo sapiens; H4 ATF4-NLuc (clone 17) cells, 50 um sodium arsenite 6 hours, luminescence
pIC50: −log10 of the molar value.
Measurement Kind: pIC50

Annotate the molecule O=C(COc1ccc(Cl)cc1)NC12CC(c3nnc([C@H]4C[C@@H](OC(F)(F)F)C4)o3)(C1)C2 with its measured pIC50.
> 6.00

----------
Test Description: Plasma PK in rats, nanosuspension
Format: in vivo
Measurement Parameters: rat, nanosuspension in deionized water, single oral 25 mg/kg, Wistar Han rats, read-out: Tmax
Measurement Kind: Tmax (h)
# output: bare number, implied unit h

Annotate the molecule O=C(COc1ccc(Cl)cc1)NC12CC(c3nnc([C@H]4C[C@@H](OC(F)(F)F)C4)o3)(C1)C2 (single isomer, unassigned) [Form A] with its measured Tmax.
8

----------
Test Description: Plasma PK in rats, nanosuspension
Assay type: in vivo
Measurement Parameters: Wistar Han, rat, po, 25 mg/kg, nanosuspension in deionized water, single oral 25 mg/kg, read-out: AUC0-48 h
Measurement Kind: AUC(0-t) (µM·h)
# output: bare number, implied unit µM·h

Annotate the compound O=C(COc1ccc(Cl)cc1)NC12CC(c3nnc([C@H]4C[C@@H](OC(F)(F)F)C4)o3)(C1)C2 (single isomer, unassigned) [Form A] with its measured AUC(0-t).
1700

----------
Test Description: Plasma PK in monkeys, nanosuspension
Type: in vivo
Measurement Parameters: male, cynomolgus monkey, po, 25 mg/kg, nanosuspension in deionized water, single oral 25 mg/kg
Measurement Kind: Cmax (µM)
# output: bare number, implied unit µM

Annotate the molecule O=C(COc1ccc(Cl)cc1)NC12CC(c3nnc([C@H]4C[C@@H](OC(F)(F)F)C4)o3)(C1)C2 (single isomer, unassigned) [Form A] with its measured Cmax.
25.4
